# protocol: Viability of PBL after 72 hour culture with αTCR stimulation, propidium iodide exclusion
# Format: cell-based, human
# conditionParameters: pbl, 800 μM, untreated 78.2, read-out: % Viable Cells
readoutKind: viability at 72 h, 800 µM (%)
Give bare numbers, in %.

Reported viability at 72 h, 800 µM for O=C(Nc1ccc2c(O)c(N=Nc3ccccc3)c(S(=O)(=O)O)cc2c1)Nc1ccc2c(O)c(N=Nc3ccccc3)c(S(=O)(=O)O)cc2c1 [Direct Orange 26] was 71.5

---

# protocol: Viability of PBL after 72 hour culture with αTCR stimulation, propidium iodide exclusion
# Assay type: cell-based, human
# conditionParameters: pbl, 400-800 μM, read-out: Reduction of viability
readoutKind: cytotoxicity at 72 h

Reported cytotoxicity at 72 h for O=C(Nc1ccc2c(O)c(N=Nc3ccccc3)c(S(=O)(=O)O)cc2c1)Nc1ccc2c(O)c(N=Nc3ccccc3)c(S(=O)(=O)O)cc2c1 [Direct Orange 26] was ≤ 10%
